Origin of measurements: PubChem BioAssay (NCI)

# Test system: NCI/ADR-RES ovarian
# Run description: NCI tumour cell line growth inhibition, 48 h
Quantity kind: TGI

Example results:
Request: Complete the entry with TGI for COc1ccc(N2C(=O)C3c4[nH]c5c(C)cccc5c4C4CCC(c5ccccc5)CC4C3C2=O)cc1 (stereo not given)
Result: 66.4 µM

Request: Complete the entry with TGI for "O=c1[nH]c2ccccc2c(O)c1/C=N/C(=S)NCCc1ccccc1"
Result: > 100 µM

Request: Complete the entry with TGI for "NC(N)=N/N=C\c1c(-c2cccc([N+](=O)[O-])c2)nc2sc(Cl)cn12"
Result: > 100 µM

Request: Complete the entry with TGI for "O=C(c1cccs1)c1c(C(F)(F)F)n([O-])c2ccc(Cl)cc2[n+]1=O"
Result: 6.24 µM

With those in mind, consider the next compound.
Request: Complete the entry with TGI for "S=C1Cc2cc3ccccc3nc2-c2ccccc2N1"
Result: 29 µM

====

The entries below are paired with their reported TGI.
# Tested on: HOP-62 NSCLC
# Run description: NCI tumour cell line growth inhibition, 48 h

Request: Complete the entry with TGI for "Cc1cccc(-c2cc(=O)c3cc(C)c(C)c(C(=O)O)c3o2)c1"
Result: > 100 µM

Request: Complete the entry with TGI for O=C1c2ccccc2OCC1/C=N/O (configuration not stated)
Result: > 100 µM

Request: Complete the entry with TGI for "O=C1C(=C2SC(c3ccccc3)(c3ccccc3)c3ccccc32)C(=O)c2ccccc21"
Result: > 100 µM

Request: Complete the entry with TGI for C=Cc1ccccc1C1C(C(=O)OCC)=C(C)N=C2OC(C(=O)OC)C(=O)N21 (configuration not stated)
Result: > 100 µM

Request: Complete the entry with TGI for "C#CCN(Cc1ccc2nc(-c3ccccc3)c(Cl)nc2c1)c1cc(OC)c(OC)c(OC)c1"
Result: > 100 µM

Request: Complete the entry with TGI for "C=C1C(=O)O[C@H]2[C@H]1CC/C(COC(=O)NCc1c[nH]c3ccc(Br)cc13)=C\CC[C@@]1(C)O[C@@H]21"
Result: 3.35 µM

Request: Complete the entry with TGI for "CN(C)CCNC(=O)c1cccc(NC(=O)c2ccccc2)c1[N+](=O)[O-]"
Result: > 100 µM

Request: Complete the entry with TGI for "O=C(O)c1c[nH]c2cc(OCc3ccccc3)ccc2c1=O"
Result: 35.9 µM

Request: Complete the entry with TGI for Nc1ncnc2c1ncn2C1OC(CO)C2OC21 (configuration not stated)
Result: > 100 µM

Request: Complete the entry with TGI for "COC(=O)[C@]1(C)CCC[C@]2(C)[C@H]3CC[C@]4(C(C)C)OO[C@@H](O4)[C@]34O[C@@H]4C[C@H]21"
Result: 7 µM

Request: Complete the entry with TGI for "O=C(O)c1ccccc1NS(=O)(=O)c1ccc([N+](=O)[O-])cc1"
Result: > 100 µM

====

The entries below are paired with their reported GI50.
# Tested on: UACC-62 melanoma
# Run description: NCI tumour cell line growth inhibition, 48 h

Example results:
Request: Complete the entry with GI50 for C1CCC(C(CC2CCCCN2)C2CCCCC2)CC1 (stereo not given)
Result: 1530 nM

Request: Complete the entry with GI50 for "COc1ccc2c(c1)C(=O)c1c-2c(=O)n(CCCCCCC(=O)NO)c2ccccc12"
Result: 145 nM

Request: Complete the entry with GI50 for "CCN1C2=C(SC(=S)C1=C1SC(C(=O)OC)=C(C(=O)OC)S1)SC(=Nc1ccc(OC)cc1)C2=O"
Result: 1730 nM

Request: Complete the entry with GI50 for "O=c1[nH]c2c3ccncc3cc(-c3cccc(Cl)c3)c2c2cnccc12"
Result: 44300 nM

New cases:
Request: Complete the entry with GI50 for O=C1C=C2C(=CCOC2O)O1 (stereo not given)
Result: 1550 nM
